B1: tRNA (parent)
chain: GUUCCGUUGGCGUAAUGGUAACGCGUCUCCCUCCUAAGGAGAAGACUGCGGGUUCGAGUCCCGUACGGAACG

variants of: B1; experiment: yeast fitness relative to wild type (ratio to wild type); higher = fitter; tRNA-Arg(CCU), competitive growth, 37 C, YPD
Variants at the floor of the assay were thinned out.
Measured yeast fitness of individual entries

Variant spec	yeast fitness
G12C U47A U54C	0.519
G50A C62A	0.875
G10C A36C C55G	≤ 0.5
G10A G41A C49U U53A	≤ 0.5
C11A A15G C33U A37G	≤ 0.5
U32C C34U	0.788
G56A C62A	0.697
C4U G44A U47C G56A	≤ 0.5
U2A G9A A20C C24U C61G	≤ 0.5
C5U U19C U26A C62A	≤ 0.5
C29A C30U G48A G50A	≤ 0.5
C11U C31G A45G G56U	≤ 0.5
U19C U28C G68C	0.67
A20G C34G A37C C66U	≤ 0.5
U13C C55G	0.645
G48A A65G	0.981
C11G A36C G68C	≤ 0.5
C11U C29U A40C C49G	0.648
G6A C61U G63C	≤ 0.5
G6A G23C A37U A57G A65C	≤ 0.5
C5U C24U U32A C55G A69U	≤ 0.5
U2A U32A A65U A69C	≤ 0.5
A21G C22A A40U	≤ 0.5
C33U A36C U54C	≤ 0.5
U26G A45G C46U U53G G63A C66U A69U	≤ 0.5
U3A A57U	0.754
U7A A40U A45G C46U	≤ 0.5
C5G C46G C49G C62A	≤ 0.5
C34U G39A G48C A65U	≤ 0.5
G10U C24G A45G	≤ 0.5
C22U C27U A57U C61G	0.574
G9A C30U	0.888
C5U C24U A36G C46A U47C C55A	≤ 0.5
C5G C30A	0.736
G50C G56A	0.635
G17A C33U A43U A57G G67U	≤ 0.5
A14U U19A C31U	≤ 0.5
U2A U8A C33U A43U	≤ 0.5
U3C C11U C29U G67A A70U	≤ 0.5
U28A A37U A69C	≤ 0.5
C4U A57G	0.872
C5U C27G U35G G44A	≤ 0.5
C4U G38A U47C	0.501
G9A A37C A45U	≤ 0.5
A21U C33G C55U	≤ 0.5
C5A U26A A43U A65U	≤ 0.5
U13A A43C A57C A70U	0.551
